System: S. epidermidis ATCC12228
Measurement Conditions: ATCC12228, pH 7
Ends that are not written are not given here.
Readout Name: MBC following MIC at pH 7, S. epidermidis ATCC12228 (μg/ml)
Express it in μg/ml; write the number only.

Sequence Input	Display Unit	Endpoint Value
HHHFRFFFRFRRR [NP438, HHHFRFFFRFRRR]	μg/ml	125
KKFPWRLRLRYGRR [NP445, KKFPWRLRLRYGRR]	μg/ml	62.5

// switching to the query sequence
Request: For RRRFRFFFRFRRR [NP432, RRRFRFFFRFRRR] , what is its reported MBC following MIC at pH 7, S. epidermidis ATCC12228?
Result: 16

###

Test system: S. aureus ATCC25923
Format: cell-based, Staphylococcus aureus
Measurement Conditions: ATCC25923, 24 h
Numbered stars: 1 amine (or outer) side, 2 acyl side, 3 side chain; on linkers, the order of the positions; unused ones are H or OH. Peptide text beside a SMILES is read from it. Cysteamide = C(CS[*:3])N[*:1]
Readout Name: MIC at pH 7, S. aureus ATCC25923 (μg/ml)
Express it in μg/ml; write the number only.

Molecule	Experimental System	Display Unit	Endpoint Value
N=C(N)NCCC[C@H](NC(=O)[C@H](CCCCN)NC(=O)[C@@H]1CCCN1C(=O)[C@H](CCCNC(=N)N)NC(=O)[C@H](CCCNC(=N)N)NC(=O)[C@@H]1CCCN1C(=O)[C@H](CCCCN)NC(=O)[C@H](CCCNC(=N)N)NC(=O)[C@H](CCCNC(=N)N)NC(=O)[C@@H]1CCCN1C(=O)[C@H](CCCCN)NC(=O)[C@@H](N)CCCCN)C(=O)N[C@@H](CCCCN)C(=O)N[C@@H](CCCCN)C(=O)NCCS [NP449, KKPRRKPRRPKRKK-cysteamine] (H-KKPRRKPRRPKRKK-Cysteamide; N-terminus assumed)	S. aureus ATCC25923	μg/ml	250
N=C(N)NCCC[C@H](NC(=O)[C@H](CCCCN)NC(=O)[C@@H]1CCCN1C(=O)[C@H](CCCNC(=N)N)NC(=O)[C@H](CCCNC(=N)N)NC(=O)[C@@H]1CCCN1C(=O)[C@H](CCCCN)NC(=O)[C@H](CCCNC(=N)N)NC(=O)[C@H](CCCNC(=N)N)NC(=O)[C@@H]1CCCN1C(=O)[C@H](Cc1c[nH]cn1)NC(=O)[C@@H](N)Cc1c[nH]cn1)C(=O)N[C@@H](Cc1c[nH]cn1)C(=O)N[C@@H](Cc1c[nH]cn1)C(=O)NCCS [NP451, HHPRRKPRRPKRHH-cysteamine] (H-HHPRRKPRRPKRHH-Cysteamide; N-terminus assumed)	S. aureus ATCC25923	μg/ml	500
N=C(N)NCCC[C@H](NC(=O)[C@H](CCCNC(=N)N)NC(=O)[C@H](CCCNC(=N)N)NC(=O)[C@H](CCCNC(=N)N)NC(=O)[C@@H](N)CCCNC(=N)N)C(=O)NCCS [NP457, RRRRR-cysteamine] (H-RRRRR-Cysteamide; N-terminus assumed)	S. aureus ATCC25923	μg/ml	125

// switching to the query molecule
Request: For N=C(N)NCCC[C@H](NC(=O)[C@H](CCCNC(=N)N)NC(=O)[C@H](CCCNC(=N)N)NC(=O)[C@H](CCCNC(=N)N)NC(=O)[C@@H](N)CCCNC(=N)N)C(=O)N[C@@H](Cc1c[nH]cn1)C(=O)N[C@@H](Cc1c[nH]cn1)C(=O)NCCS [NP458, RRRRRHH-cysteamine] (H-RRRRRHH-Cysteamide; N-terminus assumed) , what is its reported MIC at pH 7, S. aureus ATCC25923?
Result: 250

###

Test system: S. aureus ATCC25923
Assay type: cell-based, Staphylococcus aureus
Measurement Conditions: ATCC25923, 24 h
Ends that are not written are not given here.
Readout Name: MIC at pH 7, S. aureus ATCC25923

Previously resolved entries follow.
Sequence Input	Readout Name	Endpoint Value
HHPRRKPRRPKRRHH [NP441, HHPRRKPRRPKRRHH]	MIC at pH 7, S. aureus ATCC25923	>500 μg/ml
HHHFRFFFRFRRR [NP438, HHHFRFFFRFRRR]	MIC at pH 7, S. aureus ATCC25923	>500 μg/ml
RRRFRFFFRFRRR [NP432, RRRFRFFFRFRRR]	MIC at pH 7, S. aureus ATCC25923	31.25 μg/ml

// switching to the query sequence
Request: Recall the recorded MIC at pH 7, S. aureus ATCC25923 for KKFPWRLRLRYGRR [NP445, KKFPWRLRLRYGRR] with S. aureus ATCC25923 and state it.
Result: 500 μg/ml

###

Tested on: P. aeruginosa ATCC BAA-47
Test Protocol: microbe, parasite or virus in culture
Type: cell-based, Pseudomonas aeruginosa
Measurement Conditions: ATCC BAA-47, 24 h, pH 5.5
Numbered stars: 1 amine (or outer) side, 2 acyl side, 3 side chain; on linkers, the order of the positions; unused ones are H or OH. Peptide text beside a SMILES is read from it. Cysteamide = C(CS[*:3])N[*:1]
Readout Name: MIC pH5.5, P. aeruginosa ATCCBAA-47

Request: For N=C(N)NCCC[C@H](NC(=O)[C@H](CCCCN)NC(=O)[C@@H]1CCCN1C(=O)[C@H](CCCNC(=N)N)NC(=O)[C@H](CCCNC(=N)N)NC(=O)[C@@H]1CCCN1C(=O)[C@H](CCCCN)NC(=O)[C@H](CCCNC(=N)N)NC(=O)[C@H](CCCNC(=N)N)NC(=O)[C@@H]1CCCN1C(=O)[C@H](CCCCN)NC(=O)[C@@H](N)CCCCN)C(=O)N[C@@H](CCCCN)C(=O)N[C@@H](CCCCN)C(=O)NCCS [NP449, KKPRRKPRRPKRKK-cysteamine] (H-KKPRRKPRRPKRKK-Cysteamide; N-terminus assumed) , what is its reported MIC pH5.5, P. aeruginosa ATCCBAA-47?
Result: >500 μg/ml

###

System: P. aeruginosa ATCC BAA-47
Test Protocol: microbe, parasite or virus in culture
Format: cell-based, Pseudomonas aeruginosa
Measurement Conditions: ATCC BAA-47, 24 h, pH 5.5
Numbered stars: 1 amine (or outer) side, 2 acyl side, 3 side chain; on linkers, the order of the positions; unused ones are H or OH. Peptide text beside a SMILES is read from it. Cysteamide = C(CS[*:3])N[*:1]
Documented MIC pH5.5, P. aeruginosa ATCCBAA-47 across a set of molecules

Molecule	MIC pH5.5, P. aeruginosa ATCCBAA-47
N=C(N)NCCC[C@H](NC(=O)[C@H](CCCNC(=N)N)NC(=O)[C@H](CCCNC(=N)N)NC(=O)[C@H](CCCNC(=N)N)NC(=O)[C@@H](N)CCCNC(=N)N)C(=O)N[C@@H](Cc1c[nH]cn1)C(=O)N[C@@H](Cc1c[nH]cn1)C(=O)NCCS [NP458, RRRRRHH-cysteamine] (H-RRRRRHH-Cysteamide; N-terminus assumed)	>500 μg/ml
N=C(N)NCCC[C@H](NC(=O)[C@H](CCCNC(=N)N)NC(=O)[C@H](CCCNC(=N)N)NC(=O)[C@H](CCCNC(=N)N)NC(=O)[C@@H](N)CCCNC(=N)N)C(=O)NCCS [NP457, RRRRR-cysteamine] (H-RRRRR-Cysteamide; N-terminus assumed)	>500 μg/ml

// switching to the query molecule
Request: For N=C(N)NCCC[C@H](NC(=O)[C@H](CCCCN)NC(=O)[C@@H]1CCCN1C(=O)[C@H](CCCNC(=N)N)NC(=O)[C@H](CCCNC(=N)N)NC(=O)[C@@H]1CCCN1C(=O)[C@H](CCCCN)NC(=O)[C@H](CCCNC(=N)N)NC(=O)[C@H](CCCNC(=N)N)NC(=O)[C@@H]1CCCN1C(=O)[C@H](Cc1c[nH]cn1)NC(=O)[C@@H](N)Cc1c[nH]cn1)C(=O)N[C@@H](Cc1c[nH]cn1)C(=O)N[C@@H](Cc1c[nH]cn1)C(=O)NCCS [NP451, HHPRRKPRRPKRHH-cysteamine] (H-HHPRRKPRRPKRHH-Cysteamide; N-terminus assumed) , what is its reported MIC pH5.5, P. aeruginosa ATCCBAA-47?
Result: >500 μg/ml
